- test system: cat-CHD1L ATPase (Homo sapiens)
- Construct: inferred from Ni-NTA / imidazole purification; made in house; host or cells: E. coli Rosetta 2 (DE3) pLysS; constructs were a gift from Helena Berglund, Karolinska Institute
- Sequence (Q86WJ1 16-611 limits assumed): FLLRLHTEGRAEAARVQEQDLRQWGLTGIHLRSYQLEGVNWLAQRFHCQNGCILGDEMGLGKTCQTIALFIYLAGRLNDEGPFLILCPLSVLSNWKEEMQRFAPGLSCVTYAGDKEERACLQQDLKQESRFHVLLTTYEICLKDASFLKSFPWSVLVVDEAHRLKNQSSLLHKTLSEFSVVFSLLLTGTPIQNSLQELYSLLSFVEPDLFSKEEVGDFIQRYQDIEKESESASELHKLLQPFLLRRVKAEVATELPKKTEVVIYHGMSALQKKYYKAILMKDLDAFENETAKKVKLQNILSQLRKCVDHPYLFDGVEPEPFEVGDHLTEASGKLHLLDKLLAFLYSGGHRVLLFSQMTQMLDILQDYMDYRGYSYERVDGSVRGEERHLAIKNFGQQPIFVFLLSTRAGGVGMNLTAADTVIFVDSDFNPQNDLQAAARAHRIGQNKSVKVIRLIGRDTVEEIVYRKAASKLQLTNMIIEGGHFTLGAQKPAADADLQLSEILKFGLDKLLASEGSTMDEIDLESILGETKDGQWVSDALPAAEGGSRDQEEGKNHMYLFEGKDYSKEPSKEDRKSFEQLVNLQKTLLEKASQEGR
- assay name: CHD1L ATPase assay with recombinant catalytic domain (cat-CHD1L)
- Format: biochemical
- experimental conditions: Table 6; read-out: cat-CHD1L inhibition IC50
measured endpoint: IC50

# molecule, value measured
records = [
    ("Cc1cc(Nc2ccc(NC(=O)Cc3cc(Br)cs3)cc2)nc(N2CCCC2C(=O)O)n1 (stereo not drawn) [Compound 6.36]", "> 20 µM"),
    ("Cc1cc(Nc2ccc(NC(=O)Cn3ccnc3)cc2)nc(N2CCCC2)n1 [Compound 6.50]", "> 20 µM"),
]

# ---- query molecule ----
Incoming: I am curious: what IC50 value has been reported for Cc1cc(Nc2ccc(NC(=O)Cc3ccco3)cc2)nc(N2CCCC2)n1 [Compound 6.39] ?
Outgoing: > 20 µM

====

Listing: IC50 of selected compounds
- Tested on: HCT116 tumor organoids
- assay name: Tumor organoid cytotoxicity (CellTiter-Glo 3D)
- Format: cell-based, human
- experimental conditions: Homo sapiens, HCT-116, 72 h; Table 6; read-out: 3 D Cytotoxicity 72 hr IC50 (μM) HCT116

// solved cases for IC50 follow
# substance smiles, IC50
records = [
    ("Cc1cc(Nc2ccc(NC(=O)Cn3ccnc3)cc2)nc(N2CCN(C)CC2)n1", "> 20 µM"),
    ("Cc1cc(NCc2ccc(NC(=O)Cc3cc(Br)cs3)cc2)n2nc(N)nc2n1", "> 40 µM"),
    ("Cc1nc(N2CCCC2)nc(Nc2ccc(NC(=O)Cc3cccs3)cc2)c1F", "> 40 µM"),
    ("Cc1nc(N2CCCC2)nc(Nc2ccc(N(C)C(=O)Cc3cccs3)cc2)c1F", "> 40 µM"),
    ("Cc1cc(Nc2ccc(NC(=O)Cc3cc(Br)cs3)cc2)n2nc(N)nc2n1", "> 40 µM"),
]

Now examine the next entry.
Incoming: Any idea what its IC50 is? The compound is Cc1cc(Oc2ccc(NC(=O)Cc3cccs3)cc2)nc(Cl)n1
Outgoing: > 40 µM

====

- Tested on: SW620 tumor organoids
- assay name: Tumor organoid cytotoxicity (CellTiter-Glo 3D)
- experimental conditions: Homo sapiens, SW-620, read-out: Tumor Organoid Cytotoxicity IC50 (μM) SW620
# IC50 per entry

Recorded IC50, per entry:
# substance smiles, IC50
measured = [
    ("Cc1cc(Oc2ccc(NC(=O)Cc3cccs3)cc2)nc(Cl)n1", "> 20 µM"),
    ("O=C(Cc1cccs1)Nc1ccc(Nc2nc(N3CCCC3)ncc2F)cc1", "> 40 µM"),
    ("Cc1cc(Nc2ccc(NC(=O)CCc3c[nH]c4ccccc34)cc2)nc(N2CCCC2)n1", "> 40 µM"),
    ("Cc1nc(N2CCCC2)nc(Nc2ccc(NC(=O)Cc3cccs3)cc2)c1F", "> 40 µM"),
]

Then there is this compound:
Incoming: Endpoint output: IC50 of Cc1cc(Oc2ccc(NC(=O)Cc3cccs3)cc2)nc(N2CCCC2)n1 . Value?
Outgoing: > 20 µM
